# test method notes: CMV-Luciferase Counterscreen for Inhibitors of ATXN expression; also: nearly all actives have a fitted effect of over 55% in size
# condition description: HEK-293 CMV-luciferase reporter, luminescence, 24 h; series mostly up to 57.5 µM
In all, about 2,100 compounds went through this assay and about 670 (32%) were called active. Another 50% or so got no clear call; they are omitted. Calls follow the shape of the dose curve; as a rule, active = well fitted inhibition curve with a large enough effect; inconclusive = small, poorly fitted or top-dose-only effect; inactive = no such curve, though single readings can be large or run the other way. The list shows a part of the results.
Choose one outcome from this list and give only that: true (active), false (inactive)

# input Per the records of this test, what outcome belongs to COc1cc2nc(CN3CC=C(c4ccccc4)CC3)[nH]c(=O)c2cc1OC ?
# output false

# input What classification did CC(=O)OC1(C)CC(C)C(=O)C(C(O)CC2CC(=O)NC(=O)C2)C1 (stereo not given) end up with in this test?
# output true

# input Called result for COc1ccc(CC2C(=O)NC(C)C(=O)N(C)C3C(=O)N(C)C(Cc4ccc(O)c(c4)Oc4ccc(cc4)C3O)C(=O)NC(C)C(=O)NC(C)C(=O)N2C)cc1 (stereo not given)
# output true

# input Status in this test for COc1cc2c(cc1OC)C1C(=O)c3ccc4c(c3OC1CO2)CC(C(C)C)O4 (stereo not given) ?
# output true

# input Could you kindly confirm the outcome this assay logged for COc1cccc(C(c2nnnn2-c2ccc3c(c2)OCCO3)N2CCC(n3c(=O)[nH]c4ccccc43)CC2)c1OC (stereo not given) ?
# output true

Data origin: PubChem BioAssay AID1745847
